Listed below: Subtraction values for each entry.
Target: T1, full length human GLP-1R with N-terminal FLAG tag and C-terminal GFP tag, on CHO cells (human, UniProt P43220 24-463)
T1 construct: whole, on cells; the cell line itself is tied to UniProt P43220; also called FLAG-GLP-1R-GFP; CHO-GLP-1R
Experiment: flow cytometry, expressing minus parent CHO cells
Respond numerically, and do not add a unit to the figure.

In the examples that follow, each entry is paired with its recorded Subtraction.
{"columns": ["BINDER", "Subtraction"],
 "data": [
  ["GLP1R-3 (antibody, human IgG2, lambda, V domains shown, full length human IgG2; also called GLP1R01-3) VH: QVQLVESGGGVVQPGRSLRLSCAASGFTFSSYGMHWVRQAPGKGLEWVSFISYDESNKYYADSVKGRFTISRDNSKNTLYLQMNSLRAEDTAVYYCAKHMSMQEGAVTGEGQAAKEFIAWLVKGRVRADLVGDAFDVWGQGTLVTVSS VL: QSVLTQPPSVSAAPGQKVTISCSGSSSNIADNYVSWYQQLPGTAPKLLIYDNNKRPSGIPDRFSGSKSGTSATLGITGLQTGDEADYYCGTWDNYLGAGVFGGGTKLTVLG", 232000],
  ["GLP1R-221-092 (antibody, V domains shown, IgG) VH: QVQLVESGGGVVQPGRSLRLSCAASGFIFNNYGMHWVRQAPGKGLEWVAFISYGGSNKYYADSVKGRFTISRDNSKNTLYLQMNSLRAEDTAVYYCAKHMSMQEGAVTGEGQAVKEFIAWLVKGRVRADLVGDAFDVWGQGTLVTVSS VL: QSVLTQPPSVSAAPGQKVTISCSGTTSNIANNFVSWYQQLPGTAPKLLIYDNNKRPPGIPDRFSGSKSGTSATLGITGLQTGDEADYYCGTWDTSLSVGMFGGGTKLTVL", 232000]
]}

# context switch: different binder, same Subtraction
QUERY: Recall and state the measured Subtraction for GLP1R-221-065 (antibody, V domains shown, IgG) VH: QVQLVESGGGVVQPGRSLRLSCAASGFTFNNYAMHWVRQAPGKGLEWVAVISYDRSNEYYADSVKGRFTISRDNSKNTLYLQMNSLRAEDTAVYYCAKHMSMQEGAVTGDGQAAKEFIAWLVKGRVRADLVGDAFDVWGQGTLVTVSS VL: QSVLTQPPSVSAAPGQKVTISCSGTTSNIANNFVSWYQQLPGTAPKLLIYDHNKRPSGIPDRFSGSKSGTSATLGITGLQTGDEADYYCGTWDTSLSAGAFGGGTKLTVL .
RESULT: 272000
